Let's look at some molecules and their measured Fold Activity.
Assay: Saturation mutagenesis of SEQ ID NO:109: dicamba decarboxylation activity of point mutants (CO2 released), fold of backbone (Tables 7, 8, Megatable 1)
Conditions: decarboxylation activity (CO2 released) of point mutant vs unmutated backbone protein; backbone SEQ ID NO: 109
Expressed in fold, but write only the number.

Any idea what its Fold Activity is? The molecule is 29 (protein, listed as Pseudovibrio sp.) MAGRRDFLRKSVAAGVGLTAAAQLSAGGAQATVPDTSNIPLITLEEHFTTPELQSKNTSGDKRLFSGGGSRPELLDVGAGRIADMDEAGIDIQVLSTVTPGASKITGAEGVEFTRKFNTWIAEEVIAAYPNRFRAFATLPLSSPEAAADELERSVREYGFVGTMTYGPIDGKFLDHADYAPLLARAEALGVPIYIHPNWPSPTAMQAYYDGLGDDLTSRILSGPGYGWHQEIAVQCLRLIVGGVFDRFPNLQIVVGHMGEGLPFYYWRVGEDLDRIAQKRLQKPVQQYFHDNLWITTSAFFRDELLNLALATMGEDRVMFSVDYPMASAKVGADWLRAADIPLATKEKIGSKNAMKLLGIDKI
1.5

Shift focus to the following entry.
Requested read-out: Fold Activity. Entry: 54 (protein, listed as Streptomyces sp.) MAKIIALEEHFSDPAVAKAGAARAQALSPGFAASYSPASGLPYSPSPEVLENLAEKRLADMDAGGITMQVLSGLGAQTVPADVAPALVAGSNDKAAAAVRAHPDRFAAFAALPTAAPEAAVAELDRSINELGFVGTLIMGRTEGEFLDAPRFEPILARAAALKVPVFLHPGVPPREITDSNYAAGLPTGIGTRLQTAAWGWHQETAVHFLHLVHSGVLDRYPGLQFILGHWGEMIPFYLDRVDEALPQRATGLDRSFHEYFRENVYLAPSGMWSQAQLRFCLETVPLERIVFAVDYPFIGNEGAVPFLEKAELPEADKRKIAHENAERLLGL
1.4
